protocol_details: Solubility with FDA approved excipients
Assay type: physicochemical
condition_parameters: pH 6.65; only water as solvent; read-out: solubility

| compound_smiles | solubility / mg/mL |
| --- | --- |
| Cc1ccc(C(=O)c2cc(OP(=O)([O-])[O-])c(O)c([N+](=O)[O-])c2)cc1.[Na+].[Na+] | 100 |

----------
protocol_details: Solubility with FDA approved excipients
Format: physicochemical
condition_parameters: aqueous with cosolvent or surfactant or cyclodextrin; water with (2-hydroxypropyl)-beta cyclodextrin (1:1); read-out: Solubility in water with (2-hydroxypropyl)-beta cyclodextrin mg/ml (1:1)

| compound | units_symbol | solubility |
| --- | --- | --- |
| Cc1ccc(C(=O)c2cc(OP(=O)([O-])[O-])c(O)c([N+](=O)[O-])c2)cc1.[Na+].[Na+] [CAP4196] | mg/mL | 100 |

----------
target_under_test: alpha-A crystalline (Homo sapiens)
Sequence (P02489 1-173): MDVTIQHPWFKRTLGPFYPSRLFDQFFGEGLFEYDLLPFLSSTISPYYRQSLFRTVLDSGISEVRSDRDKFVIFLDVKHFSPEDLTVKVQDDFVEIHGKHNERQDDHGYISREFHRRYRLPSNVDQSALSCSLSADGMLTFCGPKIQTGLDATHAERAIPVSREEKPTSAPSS
protocol_details: Ca+2 and UVC induced aggregation of alpha-A crystalline (absorbance screen);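 further: recombinant human alpha-A crystallin (500 µg/ml) preincubated 30 min with compound, then UV-induced aggregation tracked by absorbance at time points from 0 to 120 min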
condition_parameters: preventing Ca+2 and UVC induced aggregation of alpha-A crystalline
pEC50: −log10 of the molar value.
Collected pEC50 values appear next to each entry.

| molecule | target_under_test | pEC50 |
| --- | --- | --- |
| O=C(c1cc(O)c(O)c([N+](=O)[O-])c1)c1ccccc1F | alpha-A crystalline (Homo sapiens) | 3.44 |
| O=c1c(O)c(-c2ccc(O)c(O)c2)oc2cc(O)ccc12 | alpha-A crystalline (Homo sapiens) | 3.34 |
| O=C(NCCc1ccccc1)C1CCC(C(=O)NCCc2ccccc2)CC1 (centres unmarked) | alpha-A crystalline (Homo sapiens) | 3.71 |
| COc1ccc(CCNC(=O)CCC2CCCCC2)cc1OC | alpha-A crystalline (Homo sapiens) | 3.06 |
| COc1ccc(CCNC(=O)C2CCN(C(=O)Cc3ccccc3)CC2)cc1OC | alpha-A crystalline (Homo sapiens) | 3.54 |
| Cc1ccc(C(=O)c2cc(O)c(O)c([N+](=O)[O-])c2)cc1 | alpha-A crystalline (Homo sapiens) | 4.20 |
| CCN(CC)C(=O)/C(C#N)=C/c1cc(O)c(O)c([N+](=O)[O-])c1 | alpha-A crystalline (Homo sapiens) | 3.50 |
| Oc1cc2cc[nH]c2cc1O | alpha-A crystalline (Homo sapiens) | 2.96 |
| N[C@@H](Cc1ccc(O)c(O)c1)C(=O)O | alpha-A crystalline (Homo sapiens) | 3.07 |
| COc1ccc(CCNC(=O)C2CCC2)cc1OC | alpha-A crystalline (Homo sapiens) | 4.34 |
| O=C(c1ccccc1)c1ccc(O)c(O)c1 | alpha-A crystalline (Homo sapiens) | 3.94 |

FYI, the data here is from patent US11872236B2.
